# experimental target: CDK6 (Homo sapiens)
# Sequence (Q00534 whole entry): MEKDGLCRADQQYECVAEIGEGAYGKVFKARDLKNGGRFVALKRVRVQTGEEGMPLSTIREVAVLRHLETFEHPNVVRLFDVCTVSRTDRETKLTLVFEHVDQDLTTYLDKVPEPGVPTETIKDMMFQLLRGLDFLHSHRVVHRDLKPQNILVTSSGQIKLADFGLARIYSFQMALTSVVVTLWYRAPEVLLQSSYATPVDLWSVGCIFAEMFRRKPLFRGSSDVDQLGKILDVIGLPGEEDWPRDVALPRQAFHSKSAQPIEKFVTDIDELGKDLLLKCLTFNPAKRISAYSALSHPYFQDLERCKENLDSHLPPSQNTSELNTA
# Sequence (P24385 whole entry partner): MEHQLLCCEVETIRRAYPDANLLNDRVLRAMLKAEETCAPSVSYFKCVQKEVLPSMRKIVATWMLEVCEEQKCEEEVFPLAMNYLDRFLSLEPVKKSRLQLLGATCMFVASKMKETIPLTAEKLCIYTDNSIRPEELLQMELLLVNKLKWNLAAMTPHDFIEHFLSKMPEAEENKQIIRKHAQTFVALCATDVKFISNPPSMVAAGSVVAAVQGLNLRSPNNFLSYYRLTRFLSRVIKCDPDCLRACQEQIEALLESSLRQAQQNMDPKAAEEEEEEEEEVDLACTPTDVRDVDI
# assay comment: In vitro kinase inhibition IC50, luminescence (ADP Glo), retinoblastoma substrate
# assay conditions: read-out: CDK6/D1 IC50
outcome measure: IC50 (nM)

>>> print(df.to_string())
                                   compound  value_units  measured_value
0  CS(=O)(=O)N1CCC(Nc2ncc3cc(C#N)c(=O)n(-c4c(F)cccc4F)c3n2)CC1           nM              58

A. N#Cc1cc2cnc(Nc3ccc4c(c3)CNCC4)nc2n(C2CCCC2)c1=O
B. CCS(=O)(=O)N1CCC(Nc2ncc3cc(C#N)c(=O)n(C4CCCC4)c3n2)CC1
C. N#Cc1cc2cnc(Nc3ccc4c(c3)C(=O)NC4)nc2n(C2CCCC2)c1=O
Sequence the entries by IC50, beginning with the highest number. Enter labels, ranked according to the request.
C, A, B
